# system name: T1, ProQ (Escherichia coli, UniProt P45577 1-232)
# T1 sequence: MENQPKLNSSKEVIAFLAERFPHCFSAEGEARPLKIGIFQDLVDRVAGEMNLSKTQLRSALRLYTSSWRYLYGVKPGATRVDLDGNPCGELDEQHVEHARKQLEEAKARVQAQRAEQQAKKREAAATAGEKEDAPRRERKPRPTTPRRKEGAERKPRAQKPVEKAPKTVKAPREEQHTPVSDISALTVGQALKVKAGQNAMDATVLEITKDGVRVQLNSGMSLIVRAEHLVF
# method notes: EMSA; max bound 67%; 150 mM NaCl, 25 mM Tris-HCl pH 7.5, 5% glycerol, 1 mM MgCl2, 1 nM 32P-RNA, 30 min at room temperature; native 6% PAGE in 0.5x TBE at 4 C
# reported conditions: protein: recombinant; tags: pET-15b construct; label: 32P; terminator hairpin

| binder | Kd, nM |
| --- | --- |
| malM-RepX (structured_RNA) RNA: GCUUUAUCAGCAGUGUAAAAGGCAAGGGGUAAUUACGCCCCACAGUGCUGAUUUUGCAACAUUAGGUGCGUCUCCUGGCGCACCGCUCU | 61 |

Each recorded value in this set is attributed to paper PMC12001967.
